- Tested on: P388 leukemia ip, CD2F1 mice, survival T/C
- ASSAY COMMENT: NCI In Vivo Anticancer Drug Screen. Data for tumor model P388 Leukemia (intraperitoneal) in CD2F1 (CDF1) mice
- TEST SETTINGS: endpoint: median survival time; dose: 200.0 mg/kg/injection; schedule: Q01DX001 (ip); vehicle: Klucel (hydroxypropylcellulose) (HPC); higher = longer survival
Inconclusive results and toxic doses are left out.
OBSERVATION TYPE: T/C

MOLECULE	OBSERVATION TYPE	ASSAY RESULT
c1ccc(-c2nnc3c4[nH]c5ccccc5c4cnn23)cc1	T/C	105 % of control
CC(=O)c1cc2c(cc1Br)OCO2	T/C	102 % of control
NC(=O)c1c(-c2ccccc2)nc2n1CCS2	T/C	109 % of control
CC(=O)C1(CCC(C)(S(=O)(=O)c2ccccc2)S(=O)(=O)c2ccccc2)CCCCC1=O (stereo not given)	T/C	100 % of control
O=C(CCc1cc2[nH]c1c(-c1ccccc1)c1nc(c(-c3ccccc3)c3ccc([nH]3)c(-c3ccccc3)c3nc(c2-c2ccccc2)C=C3)C=C1)OCCCc1cccnc1	T/C	100 % of control
C[C@@H]1CN(c2ccccc2)C[C@H](C)OS(=O)O1 (stereo not given in full)	T/C	97 % of control

Asked: Fill in: T/C of `NC(=S)c1ccc(N=Cc2ccco2)cc1` is ___
Given back: 104 % of control

Asked: Fill in: T/C of `Nc1cc(-c2ccccc2)cn1-c1nnc(-c2ccc(Br)cc2)s1` is ___
Given back: 100 % of control

Asked: Fill in: T/C of `CC1(C)C2=CCC[C@H]2[C@H]2[C@@H](OC(=O)/C=C/c3ccccc3)CC[C@H]21` is ___
Given back: 103 % of control

Asked: Fill in: T/C of c1ccc(C2CO2)cc1 (stereo not given) is ___
Given back: 100 % of control

###

- Tested on: P388 leukemia ip, CD2F1 mice, survival T/C
- ASSAY COMMENT: NCI In Vivo Anticancer Drug Screen. Data for tumor model P388 Leukemia (intraperitoneal) in CD2F1 (CDF1) mice
- TEST SETTINGS: endpoint: median survival time; dose: 12.5 mg/kg/injection; schedule: Q01DX005 (ip); vehicle: saline with Tween-80; higher = longer survival
- Protocol: The antitumor activity of compounds was measured in mice bearing transplantable tumors. Survival or tumor size were measured and the results are expressed as the measurement made in the treated group (T) divided by the measurement made in the vehicle treated control group (C). The tumor model used in this assay is P388 Leukemia (intraperitoneal) in CD2F1 (CDF1) mice
Toxic doses and inconclusive results are not listed.
OBSERVATION TYPE: T/C

MOLECULE	T/C
NCCCNCCCNc1nc2nc(N)nc(N)c2nc1-c1ccc([N+](=O)[O-])cc1	101 % of control
C[n+]1cc(-c2ccccc2)cc(-c2ccccc2)c1	100 % of control
CC1(C)CC[P+](CC[P+]2(c3ccccc3)CCC(C)(C)c3ccccc32)(c2ccccc2)c2ccccc21 (stereo not given)	100 % of control
O=C(OCC1OC(n2ccc(=S)[nH]c2=O)C(OC(=O)c2ccccc2)C1OC(=O)c1ccccc1)c1ccccc1 (stereo not given)	102 % of control

Asked: Fill in: T/C of `C/C(=N\NC(=S)N1CCN(c2ccccc2)CC1)c1cnccn1` is ___
Given back: 109 % of control

Asked: Fill in: T/C of `COc1cc(-c2ccc(N=Nc3c(O)c(C(=O)Nc4ccccc4OC)cc4ccccc34)c(OC)c2)ccc1N=Nc1c(O)c(C(=O)Nc2ccccc2OC)cc2ccccc12` is ___
Given back: 96 % of control
